Assay: Cytotoxicity against HepG2
Type: cell-based
Conditions: human, HepG2 cells (ATCC HB-8065), 5 days exposure
Checkbox rule: CC50 at 5 days lower than 20 µM = fulfilled; CC50 at 5 days not lower than 20 µM = not fulfilled.

# Molecule, Class assignment
records = [
    ("CCN(C(=O)c1ccn2ncc(-c3ccc(C(=O)NC)nc3)c2c1)c1ccc(F)cn1", "fulfilled"),
    ("CN(C(=O)c1ccn2ncc(-c3cnc(Cl)c(NS(C)(=O)=O)c3)c2c1)c1ccc(C#N)cn1", "not fulfilled"),
    ("CN(C(=O)c1ccn2ncc(-c3ccnc(N)c3)c2c1)c1ccc(C#N)cn1", "fulfilled"),
    ("CN(C(=O)c1ccn2ncc(-c3ccc(C(=O)NCCO)cc3)c2c1)c1ccc(C#N)cn1", "not fulfilled"),
    ("CN(C(=O)c1ccn2ncc(-c3ccc(C(F)(F)F)cc3)c2c1)c1ccc(C#N)cn1", "not fulfilled"),
    ("N#Cc1ccc(N(C(=O)c2ccn3ncc(-c4ccc(C(N)=O)cn4)c3c2)C2CC2)cc1", "fulfilled"),
    ("CNC(=O)c1ccc(-c2cnn3ccc(C(=O)N(c4ccc(C(F)(F)F)cn4)C4CCC4)cc23)cn1", "fulfilled"),
    ("CC1COc2cc(F)ccc2N1C(=O)c1ccn2ncc(-c3ccc(C(N)=O)cc3)c2c1 (stereo not shown)", "fulfilled"),
]

----------
Target: C. parvum PI(4)K (Cryptosporidium parvum)
Sequence (Q5CVD3 entry or part of it): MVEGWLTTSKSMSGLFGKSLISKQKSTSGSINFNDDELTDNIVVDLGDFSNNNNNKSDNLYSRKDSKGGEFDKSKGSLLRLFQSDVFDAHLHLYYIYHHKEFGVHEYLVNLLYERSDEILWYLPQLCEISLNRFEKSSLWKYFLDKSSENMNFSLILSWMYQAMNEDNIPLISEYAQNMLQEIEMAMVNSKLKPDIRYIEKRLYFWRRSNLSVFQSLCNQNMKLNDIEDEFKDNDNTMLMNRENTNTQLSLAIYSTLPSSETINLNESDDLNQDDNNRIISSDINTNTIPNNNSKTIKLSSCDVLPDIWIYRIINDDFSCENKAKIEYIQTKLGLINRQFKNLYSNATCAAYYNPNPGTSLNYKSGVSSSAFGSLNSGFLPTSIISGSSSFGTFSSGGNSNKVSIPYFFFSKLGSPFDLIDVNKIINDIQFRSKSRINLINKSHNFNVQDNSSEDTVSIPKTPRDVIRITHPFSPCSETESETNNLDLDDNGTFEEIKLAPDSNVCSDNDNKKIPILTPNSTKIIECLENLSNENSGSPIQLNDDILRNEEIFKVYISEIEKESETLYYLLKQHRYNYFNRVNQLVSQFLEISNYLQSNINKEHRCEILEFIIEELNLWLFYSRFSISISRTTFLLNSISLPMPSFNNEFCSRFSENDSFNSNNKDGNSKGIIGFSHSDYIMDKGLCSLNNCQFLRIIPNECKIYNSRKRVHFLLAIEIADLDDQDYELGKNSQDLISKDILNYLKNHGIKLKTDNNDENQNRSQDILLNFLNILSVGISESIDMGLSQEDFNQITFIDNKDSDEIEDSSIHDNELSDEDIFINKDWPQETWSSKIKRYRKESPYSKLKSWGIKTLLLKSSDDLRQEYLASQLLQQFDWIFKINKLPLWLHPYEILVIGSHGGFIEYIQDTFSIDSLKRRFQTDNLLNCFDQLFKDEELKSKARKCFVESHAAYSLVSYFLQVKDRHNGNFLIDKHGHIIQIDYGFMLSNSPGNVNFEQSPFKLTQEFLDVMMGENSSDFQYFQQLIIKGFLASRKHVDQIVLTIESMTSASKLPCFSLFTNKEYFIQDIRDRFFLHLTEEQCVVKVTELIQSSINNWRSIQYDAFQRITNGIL
Assay: CpPI(4)K enzymatic assay (Transcreener ADP2 FP)
Assay type: biochemical
pIC50: −log10 of the molar value.

# Substance smiles, pIC50
rows = [
    ("CNC(=O)c1ccc(-c2cnn3ccc(C(=O)N(C)c4ccc(C#N)cc4)cc23)cn1", 7.14),
    ("CN(C(=O)c1ccn2ncc(-c3cnc4[nH]ccc4c3)c2c1)c1ccc(C#N)cn1", 7.33),
    ("N#Cc1ccc(N(C(=O)c2ccn3ncc(-c4ccc(C(=O)NC5CC5)cc4)c3c2)C2CC2)nc1", 7.42),
    ("CCN(C(=O)c1ccn2ncc(-c3ccc(C(=O)NC)cc3)c2c1)c1ccc(C#N)cn1", 8.10),
    ("CNC(=O)c1ccc(-c2cnn3ccc(C(=O)N(c4ccc(C#N)cn4)C(C)C)cc23)cc1", 7.68),
]

----------
Assay: Cytotoxicity against HepG2
Format: cell-based
Details: human, HepG2 cells (ATCC HB-8065), 5 days exposure
Checkbox rule: CC50 at 5 days lower than 5 µM = Condition met; CC50 at 5 days not lower than 5 µM = Condition not met.

# Compound, Class assignment
data = [
    ("CN(C(=O)c1ccn2ncc(-c3ccc(C(=O)NCCN)cc3)c2c1)c1ccc(C#N)cn1", "Condition not met"),
    ("CNC(=O)c1ccc(-c2cnn3ccc(C(=O)N(C)c4ccc(OC)nc4)cc23)cc1", "Condition not met"),
    ("Cc1ccc(N(C)C(C)c2ccn3ncc(-c4ccc(C(N)=O)cc4)c3c2)nc1 (stereo not drawn)", "Condition met"),
    ("CN(C(=O)c1ccn2ncc(-c3ccc4c(cnn4C)c3)c2c1)c1ccc(C#N)cc1", "Condition met"),
    ("CNC(=O)c1ccc(-c2cnn3ccc(C(=O)N(c4ccc(C(F)(F)F)cn4)C(C)C)cc23)cn1", "Condition not met"),
    ("CNC(=O)c1ccc(-c2cnn3ccc(C(=O)N(c4ccc(C(N)=O)cn4)C4CC4)cc23)cc1", "Condition not met"),
    ("CNC(=O)c1ccc(-c2cnn3ccc(C(=O)N(c4ccc(C#N)cn4)C4CC4)cc23)nc1", "Condition not met"),
    ("CC(C)NC(=O)c1ccc(-c2cnn3ccc(C(=O)N(c4ccc(C#N)cn4)C4CC4)cc23)cc1", "Condition not met"),
]

----------
Assay: Cytotoxicity against HepG2
Assay type: cell-based
Conditions: human, HepG2 cells (ATCC HB-8065), 5 days exposure
Experimental: Cytotoxicity against HepG2 (ATCC# HB-8065), a human liver cancer cell line, was determined as previously described earlier (Manjunatha et al., 2015). Briefly, cells were seeded at a density of 10^5 cells per well, incubated at 37° C. for 24 h and exposed to two-fold serially-diluted compounds for 5 days. Cell viability was monitored using the Cell Proliferation Kit II (Invitrogen). The cytotoxicity values of selected compounds are reported in the fifth column [HepG2 CC50 (μM)] of Table II.

# Molecule, Display unit, Censoring sign, CC50 at 5 days
measured = [
    ("CN(C)C(=O)c1cc(-c2cnn3ccc(C(=O)N(C)c4ccc(C#N)cn4)cc23)cnc1N [Example 87]", "µM", ">", 50),
    ("CCN(C(=O)c1ccn2ncc(-c3ccc(C(=O)NC)nc3)c2c1)c1ccc(C(F)(F)F)cn1 [Example 157]", "µM", "=", 8.96),
    ("CN(C(=O)c1ccn2ncc(-c3cnc(N)c(C#N)c3)c2c1)c1ccc(C#N)cn1 [Example 85]", "µM", "=", 30.4),
]

----------
Experiment: Cytotoxicity against HepG2
Format: cell-based
Conditions: human, HepG2 cells (ATCC HB-8065), 5 days exposure

# Compound, CC50 at 5 days
rows = [
    ("CNC(=O)c1ccc(-c2cnn3ccc(C(=O)N(c4ccc(Cl)cc4)C4CC4)cc23)cn1 [Example 143]", "17.5 µM"),
    ("N#Cc1ccc(N(C(=O)c2ccn3ncc(-c4ccc(C(N)=O)cc4)c3c2)C2CC2)cc1 [Example 134]", "7.24 µM"),
    ("CCN(C(=O)c1ccn2ncc(-c3ccc(C(=O)NC)cc3)c2c1)c1ccc(F)cn1 [Example 95]", "13 µM"),
    ("CNC(=O)c1ccc(-c2cnn3ccc(C(=O)N(c4ccc(C#N)cn4)C4CC4)cc23)cc1 [Example 93]", "28.1 µM"),
]

----------
Test: Cytotoxicity against HepG2
Type: cell-based
Conditions: human, HepG2 cells (ATCC HB-8065), 5 days exposure
Checkbox rule: CC50 at 5 days lower than 10 µM = class 1; CC50 at 5 days not lower than 10 µM = class 0.

# Substance smiles, Class assignment
records = [
    ("CNC(=O)c1ccc(-c2cnn3ccc(C(=O)N(c4ccc(C#N)cn4)C(C)(C)C)cc23)cc1", "class 0"),
    ("CNC(=O)c1ccc(-c2cnn3ccc(C(=O)N(c4ccc(C#N)cn4)C4CCC4)cc23)cn1", "class 1"),
    ("CNC(=O)c1ccc(-c2cnn3ccc(C(=O)N(c4ccc(Cl)cc4)C4CC4)cc23)cc1", "class 1"),
    ("CNC(=O)c1ccc(-c2cnn3ccc(C(=O)N(C)c4ccc(C#N)cc4)cc23)cn1", "class 0"),
    ("CCN(C(=O)c1ccn2ncc(-c3ccc(C(=O)NC)cc3)c2c1)c1ccc(C#N)cn1", "class 0"),
    ("CNCCNC(=O)c1ccc(-c2cnn3ccc(C(=O)N(C)c4ccc(C#N)cn4)cc23)cc1", "class 1"),
    ("CN(C(=O)c1ccn2ncc(-c3ccc(N)nc3)c2c1)c1ccc(C#N)cc1", "class 0"),
    ("CN(C(=O)c1ccn2ncc(-c3ccc(C(N)=O)cc3)c2c1)c1ccc(C#N)cc1", "class 1"),
    ("CNC(=O)c1ccc(-c2cnn3ccc(C(=O)N(c4ccc(C#N)cn4)C4CCCC4)cc23)cc1", "class 0"),
    ("CNC(=O)c1ccc(-c2cnn3ccc(C(=O)N(c4ccc(C#N)cn4)C(C)C)cc23)cc1", "class 0"),
]

----------
Assay: Cytotoxicity against HepG2
Assay type: cell-based
Conditions: human, HepG2 cells (ATCC HB-8065), 5 days exposure
Procedure: Cytotoxicity against HepG2 (ATCC# HB-8065), a human liver cancer cell line, was determined as previously described earlier (Manjunatha et al., 2015). Briefly, cells were seeded at a density of 10^5 cells per well, incubated at 37° C. for 24 h and exposed to two-fold serially-diluted compounds for 5 days. Cell viability was monitored using the Cell Proliferation Kit II (Invitrogen). The cytotoxicity values of selected compounds are reported in the fifth column [HepG2 CC50 (μM)] of Table II.

# Substance smiles, CC50 at 5 days
rows = [
    ("CNC(=O)c1ccc(-c2cnn3ccc(C(=O)N(c4ccc(C#N)cn4)C4CCC4)cc23)nc1", "> 50 µM"),
    ("CN(C(=O)c1ccn2ncc(-c3ccc(C(=O)O)cc3)c2c1)c1ccc(C#N)cn1", "> 50 µM"),
    ("N#Cc1ccc(N(C(=O)c2ccn3ncc(-c4ccc(C(=O)NC5COC5)cc4)c3c2)C2CC2)nc1", "> 50 µM"),
]
